- target: T1, his-tagged ROR2 extracellular domain (ROR2-ECD, G&P Biosciences, cat. no. FCL0192) (human, UniProt Q01974 34-403)
- T1 construct: Bought protein; also called human ROR2-ECD; recombinant human ROR2-ECD; not shown: his tag
- T1 sequence (Q01974 34-403): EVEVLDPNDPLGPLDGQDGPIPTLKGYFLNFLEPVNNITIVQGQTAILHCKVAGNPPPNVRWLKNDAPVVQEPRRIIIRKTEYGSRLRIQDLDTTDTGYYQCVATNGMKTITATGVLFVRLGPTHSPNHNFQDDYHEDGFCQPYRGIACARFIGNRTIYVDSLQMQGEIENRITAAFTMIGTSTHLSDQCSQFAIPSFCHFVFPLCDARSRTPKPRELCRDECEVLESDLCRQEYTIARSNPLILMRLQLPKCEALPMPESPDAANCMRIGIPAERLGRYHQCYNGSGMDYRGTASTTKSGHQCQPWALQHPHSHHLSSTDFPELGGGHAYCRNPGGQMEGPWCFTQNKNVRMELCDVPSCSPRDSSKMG
- assay-protocol: BLI (Octet), antibody on anti-human IgG Fc sensor, ROR2-ECD 1.56-100 nM as analyte
Use Fulfilled when the recorded koff is no lower than 0.0009 s⁻¹; use Not fulfilled when it is lower.

Task: I'd appreciate it if you could say whether chIgG1-ROR2-A-FEAR (antibody, V domains shown, Full-length IgG1 with L234F, L235E, D265A, K409R; also called chIgG1-ROR2-A (with the Fc mutations FEAR)) VH: QSVEESGGRLVTPGTPLTLTCTVSGFSLSSYSMSWVRQAPGKGLEWIGVIYVNSKTWYANWAKGRFTISKTSTTVDLKITSPTTEDTATYFCARGDAGYTTNSWLWGPGTLVTVSS VL: AFELTQTPASVSEPVGGTVTIKCQASESIDNYCSWYQQKPGQPPKLLIYQAFKLASGVPSRFRGSGSGTQFTLTISDLESDDAATYYCQSYSGISTTAFGGGTEVVVKR has koff at least equal to 0.0009 s⁻¹.
Result: Not fulfilled

Task: Hi team, for IgG1-ROR2-A-HC6LC2-FEAR (antibody, V domains shown, Humanized variant) VH: EVQLLESGGGLVQPGGSLRLSCTVSGFSLSSYSMSWVRQAPGKGLEWIGVIYVNSKTWYADSVKGRFTISKDNSKNTVYLQMNSLRAEDTATYYCARGDAGYTTNSWLWGQGTLVTVSS VL: AFELTQSPSSLSASVGDRVTITCQASESIDNYLSWYQQKPGKAPKLLIYQAFKLASGVPSRFRGSGSGTDFTLTISSLQSEDFATYYCQSYSGISTTAFGGGTEVVIK , is the recorded koff at or above 0.0009 s⁻¹?
Result: Fulfilled

Task: Is reported koff greater than or equal to 0.0009 s⁻¹ here: IgG1-ROR2-A-HC6LC1-FEAR (antibody, V domains shown, Humanized variant) VH: EVQLLESGGGLVQPGGSLRLSCTVSGFSLSSYSMSWVRQAPGKGLEWIGVIYVNSKTWYADSVKGRFTISKDNSKNTVYLQMNSLRAEDTATYYCARGDAGYTTNSWLWGQGTLVTVSS VL: AFELTQSPSSLSASVGDRVTITCQASESIDNYCSWYQQKPGKAPKLLIYQAFKLASGVPSRFRGSGSGTDFTLTISSLQSEDFATYYCQSYSGISTTAFGGGTEVVIK
Result: Fulfilled

Task: Threshold query (koff >= 0.0009 s⁻¹) on IgG1-ROR2-A-HC5LC2-FEAR (antibody, V domains shown, Humanized variant) VH: EVQLLESGGGLVQPGGSLRLSCAASGFSLSSYSMSWVRQAPGKGLEWIGVIYVNSKTWYANWAKGRFTISKDNSKNTVYLQMNSLRAEDTATYYCARGDAGYTTNSWLWGQGTLVTVSS VL: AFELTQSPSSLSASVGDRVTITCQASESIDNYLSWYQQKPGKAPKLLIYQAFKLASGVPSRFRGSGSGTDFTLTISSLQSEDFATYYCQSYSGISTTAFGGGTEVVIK
Result: Fulfilled

Task: Tell me whether koff is at least 0.0009 s⁻¹ here: IgG1-ROR2-A-HC1LC2-FEAR (antibody, V domains shown, Humanized variant) VH: QSVLESGGGLVQPGGSLRLSCTVSGFSLSSYSMSWVRQAPGKGLEWIGVIYVNSKTWYANWAKGRFTISKTSTTVDLKITSPTAEDTATYFCARGDAGYTTNSWLWGQGTLVTVSS VL: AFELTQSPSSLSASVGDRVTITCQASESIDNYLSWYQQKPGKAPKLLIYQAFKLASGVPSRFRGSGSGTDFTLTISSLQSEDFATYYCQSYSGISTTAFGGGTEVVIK
Result: Fulfilled

Task: I'd appreciate it if you could say whether IgG1-ROR2-A-HC2LC1-FEAR (antibody, V domains shown, Humanized variant) VH: QSVLESGGGLVQPGGSLRLSCTVSGFSLSSYSMSWVRQAPGKGLEWIGVIYVNSKTWYANWAKGRFTISKTSTTVYLQMNSLRAEDTATYFCARGDAGYTTNSWLWGQGTLVTVSS VL: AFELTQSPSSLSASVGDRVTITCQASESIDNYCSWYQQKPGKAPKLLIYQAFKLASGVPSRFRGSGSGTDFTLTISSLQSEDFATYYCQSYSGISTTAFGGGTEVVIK has koff at least equal to 0.0009 s⁻¹.
Result: Not fulfilled

Task: Could you verify whether the entry IgG1-ROR2-A-HC4LC2-FEAR (antibody, V domains shown, Humanized variant) VH: EVQLLESGGGLVQPGGSLRLSCTVSGFSLSSYSMSWVRQAPGKGLEWIGVIYVNSKTWYANWAKGRFTISKDNSKNTVYLQMNSLRAEDTATYYCARGDAGYTTNSWLWGQGTLVTVSS VL: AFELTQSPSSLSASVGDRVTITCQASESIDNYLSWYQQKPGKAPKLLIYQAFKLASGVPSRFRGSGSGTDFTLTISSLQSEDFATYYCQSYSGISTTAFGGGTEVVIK shows koff of no less than 0.0009 s⁻¹?
Result: Fulfilled

Task: Has IgG1-ROR2-A-HC7LC1-FEAR (antibody, V domains shown, Humanized variant) VH: EVQLLESGGGLVQPGGSLRLSCAASGFSLSSYSMSWVRQAPGKGLEWIGVIYVNSKTWYADSVKGRFTISKDNSKNTVYLQMNSLRAEDTATYYCARGDAGYTTNSWLWGQGTLVTVSS VL: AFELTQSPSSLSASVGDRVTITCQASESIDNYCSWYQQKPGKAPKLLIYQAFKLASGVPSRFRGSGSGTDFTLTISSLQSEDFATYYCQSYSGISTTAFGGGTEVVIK a recorded koff greater than or equal to 0.0009 s⁻¹?
Result: Fulfilled
